biological target: 6-phosphofructo-2-kinase/fructose-2,6-bisphosphatase 3 (Homo sapiens); assay: Inhibition of iPFK2 (unknown origin) assessed as reduction in enzyme-mediated fructose-6-phosphate phosphorylation by measuring ATP consumption incubated for 3 hrs by luciferase-luciferin-coupled chemiluminescence assay
Sequence (Q16875 whole entry): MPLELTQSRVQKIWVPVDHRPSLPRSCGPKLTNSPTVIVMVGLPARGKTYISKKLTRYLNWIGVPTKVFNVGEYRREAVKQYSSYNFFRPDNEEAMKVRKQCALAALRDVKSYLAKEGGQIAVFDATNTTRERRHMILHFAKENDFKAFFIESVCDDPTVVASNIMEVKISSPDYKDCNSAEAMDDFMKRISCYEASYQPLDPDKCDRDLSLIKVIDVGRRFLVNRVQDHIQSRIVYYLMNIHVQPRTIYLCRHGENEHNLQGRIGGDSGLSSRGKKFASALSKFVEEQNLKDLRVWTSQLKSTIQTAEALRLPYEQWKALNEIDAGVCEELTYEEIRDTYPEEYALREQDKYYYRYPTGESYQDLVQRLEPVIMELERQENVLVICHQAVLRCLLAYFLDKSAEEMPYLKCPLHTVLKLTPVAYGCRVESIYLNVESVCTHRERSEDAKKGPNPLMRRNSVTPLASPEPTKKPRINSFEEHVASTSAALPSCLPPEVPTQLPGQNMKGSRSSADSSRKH
pIC50: −log10 of the molar value.
Assign pIC50 to each entry below.

query: Query: pIC50; subject: Cc1nc(NC(C)c2cccc(-c3noc(C)n3)c2)cc(-c2ccc3ncsc3c2)n1 (stereo unspecified)
result: < 6.00

query: Value lookup for pIC50; key = COc1cccc(-c2cc(N[C@@H]3CCCc4ccccc43)nc(C)n2)c1F
result: < 6.00

query: Which pIC50 value is on record for Cc1nc(N[C@@H]2CCCc3ccccc32)cc(-c2cccc(N)c2)n1 ?
result: < 6.00

query: Reported pIC50, compound Cc1nc(NC(C)c2ccccc2C)cc(-c2ccc3occ(C)c3c2)n1 (stereo unspecified) : ____
result: < 6.00

query: Item under review: Cc1nc(NC(C)c2cccc(-c3cnn(C)c3)c2)cc(-c2ccc3c(c2)N(C)CCO3)n1 (stereo unspecified) . Reported pIC50?
result: 6.30

query: Query: pIC50; subject: Cc1nc(NC(C)c2cccc(OCCn3cccc3)c2)cc(-c2ccc3ncsc3c2)n1 (stereo unspecified)
result: < 6.00

query: Return reported pIC50; argument: Cc1nc(NC(C)c2cccc(-c3cnn(C)c3)c2)cc(-c2ccc(F)c(C)c2)n1 (stereo unspecified)
result: < 6.00

query: GET /values?readout=pIC50&item= COc1cccc([C@H](C)Nc2cc(-c3cccc4cc[nH]c34)nc(C)n2)c1
result: < 6.00

query: # input compound: CNC(=O)COc1cccc(C(C)Nc2cc(-c3cccc(OC)c3)nc(C)n2)c1 (stereo unspecified) ; wanted: its pIC50
result: 6.30

query: Would you kindly share the measured pIC50 for Cc1nc(N[C@@H]2CCCc3ccccc32)cc(-c2cncnc2)n1 ?
result: < 6.00

query: Fill in: pIC50 of Cc1nc(N[C@@H](C)c2cccc(-c3cc[nH]n3)c2)cc(-c2ccc3ncsc3c2)n1 is ___
result: 6.30

query: Would you mind telling me what pIC50 value was observed for Cc1nc(NC2CC(C)(C)Oc3ccccc32)cc(-c2ccc3ncsc3c2)n1 (stereo unspecified) ?
result: 6.30

query: Request the reported pIC50 associated with Cc1nc(N[C@@H]2CCCc3ccccc32)cc(-c2ccc3c(c2)N(CCO)CCO3)n1
result: < 6.00

query: Find the recorded pIC50 belonging to Cc1nc(NC(C)c2cccc(-c3ccc[nH]3)c2)cc(-c2ccc3ncsc3c2)n1 (stereo unspecified) and report it.
result: < 6.00

query: So what's the measured pIC50 for this one? Cc1nc(N[C@H]2CCCc3ccccc32)cc(-c2ccc3ncsc3c2)n1
result: 6.30

query: Tell me the measured pIC50 of Cc1nc(NC(C)c2cccc(NC(=O)NC(N)=O)c2)cc(-c2ccc3ncsc3c2)n1 (stereo unspecified) , please.
result: < 6.00

query: Endpoint output: pIC50 of Cc1nc(NCCC(C)C)cc(-c2ccc3ncsc3c2)n1 . Value?
result: 6.30

query: Quick check: pIC50 of COc1cccc(CNc2cc(-c3ccc4occ(C)c4c3)nc(C)n2)c1 ?
result: 6.30

query: Find the recorded pIC50 belonging to COc1cccc([C@H](C)Nc2cc(-c3cccc(N(C)C)c3)nc(C)n2)c1 and report it.
result: < 6.00

query: Bench note: what pIC50 did Cc1nc(NC(C)c2cccc([N+](=O)[O-])c2)cc(-c2ccc3ncsc3c2)n1 (stereo unspecified) show?
result: 6.30

query: Which pIC50 reading was recorded for the compound COc1cccc([C@H](C)Nc2cc(-c3ccc4cc[nH]c4c3)nc(C)n2)c1 ?
result: < 6.00
